Here the recorded pIC50 is given for each entry.
# System: 276233-004-R-J1-PDC complex spheroid viability
# procedure_text: Anticancer human tumor 276233-004-R-J1-PDC patient-derived colon adenocarcinoma cell line growth inhibition [GQUAD]
# assay_setup: curve of first compound; second compound 1 µM
pIC50: −log10 of the molar value.

compound: Nc1ccn(C2OC(CO)C(O)C2(F)F)c(=O)n1 (stereo not drawn) + Cc1cnc(CNC(=O)c2c(=O)c3ccc(N4CCCN(C)CC4)nc3n3c2sc2ccccc23)cn1
pIC50: < 5.00

compound: C=CC(=O)N1CCN(c2nc(=O)n(-c3c(C)ccnc3C(C)C)c3nc(-c4c(O)cccc4F)c(F)cc23)C(C)C1 (stereo not drawn) + Cc1[nH]c2ccc(F)cc2c1-c1nc2c3cccnc3c3ncccc3c2[nH]1
pIC50: < 5.00

compound: Nc1ccn(C2OC(CO)C(O)C2(F)F)c(=O)n1 (stereo not drawn) + CN(C)c1ccc(Nc2c3ccc(NC(=O)CCN4CCCC4)cc3nc3cc(NC(=O)CCN4CCCC4)ccc23)cc1
pIC50: < 5.00

###

# Tested on: 276233-004-R-J1-PDC complex spheroid viability
# procedure_text: Anticancer human tumor 276233-004-R-J1-PDC cell line growth inhibition [GQUAD];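 also: spheroids exposed to drugs for seven days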;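 as to viability, T/C: 100% = DMSO vehicle control viability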
# assay_setup: second compound 10 µM; first compound 0.00316 µM; stronger effect = lower value
Here the recorded viability, T/C is given for each entry.

compound: CCc1c2c(nc3ccc(O)cc13)-c1cc3c(c(=O)n1C2)COC(=O)[C@]3(O)CC + Cc1[nH]c2ccc(F)cc2c1-c1nc2c3cccnc3c3ncccc3c2[nH]1
viability, T/C, %: 41.1
//
compound: Cn1ncnc1[C@H]1c2n[nH]c(=O)c3cc(F)cc(c23)N[C@@H]1c1ccc(F)cc1 + CN(C)c1ccc(Nc2c3ccc(NC(=O)CCN4CCCC4)cc3nc3cc(NC(=O)CCN4CCCC4)ccc23)cc1
viability, T/C, %: 43.1
//
compound: CC[C@@]1(O)C(=O)OCc2c1cc1n(c2=O)Cc2cc3c(CN(C)C)c(O)ccc3nc2-1 + Cc1cnc(CNC(=O)c2c(=O)c3ccc(N4CCCN(C)CC4)nc3n3c2sc2ccccc23)cn1
viability, T/C, %: 67.9
//
compound: Cc1[nH]c2ccccc2c1CCNCc1ccc(/C=C/C(=O)NO)cc1 + Cc1[nH]c2ccc(F)cc2c1-c1nc2c3cccnc3c3ncccc3c2[nH]1
viability, T/C, %: 45.9
//
compound: Cc1[nH]c2ccccc2c1CCNCc1ccc(/C=C/C(=O)NO)cc1 + Cc1cnc(CNC(=O)c2c(=O)c3ccc(N4CCCN(C)CC4)nc3n3c2sc2ccccc23)cn1
viability, T/C, %: 60.8

###

# System: 276233-004-R-J1-PDC complex spheroid viability
# procedure_text: Anticancer human tumor 276233-004-R-J1-PDC cell line growth inhibition [GQUAD];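 also: spheroids exposed to drugs for seven days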;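 as to viability, T/C: 100% = DMSO vehicle control viability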
# assay_setup: second compound 0.0316 µM; first compound 0.00316 µM; stronger effect = lower value
Here the recorded viability, T/C is given for each entry.

compound: Cn1ncnc1[C@H]1c2n[nH]c(=O)c3cc(F)cc(c23)N[C@@H]1c1ccc(F)cc1 + Cc1cnc(CNC(=O)c2c(=O)c3ccc(N4CCCN(C)CC4)nc3n3c2sc2ccccc23)cn1
assay_system: 276233-004-R-J1-PDC complex spheroid viability
viability, T/C: 72.2%

compound: Cc1[nH]c2ccccc2c1CCNCc1ccc(/C=C/C(=O)NO)cc1 + CN(C)c1ccc(Nc2c3ccc(NC(=O)CCN4CCCC4)cc3nc3cc(NC(=O)CCN4CCCC4)ccc23)cc1
assay_system: 276233-004-R-J1-PDC complex spheroid viability
viability, T/C: 79%

compound: CC[C@@]1(O)C(=O)OCc2c1cc1n(c2=O)Cc2cc3c(CN(C)C)c(O)ccc3nc2-1 + Cc1[nH]c2ccc(F)cc2c1-c1nc2c3cccnc3c3ncccc3c2[nH]1
assay_system: 276233-004-R-J1-PDC complex spheroid viability
viability, T/C: 76.6%

compound: CCc1c2c(nc3ccc(O)cc13)-c1cc3c(c(=O)n1C2)COC(=O)[C@]3(O)CC + Cc1cnc(CNC(=O)c2c(=O)c3ccc(N4CCCN(C)CC4)nc3n3c2sc2ccccc23)cn1
assay_system: 276233-004-R-J1-PDC complex spheroid viability
viability, T/C: 92.2%

compound: CC[C@@]1(O)C(=O)OCc2c1cc1n(c2=O)Cc2cc3c(CN(C)C)c(O)ccc3nc2-1 + Cc1cnc(CNC(=O)c2c(=O)c3ccc(N4CCCN(C)CC4)nc3n3c2sc2ccccc23)cn1
assay_system: 276233-004-R-J1-PDC complex spheroid viability
viability, T/C: 94.5%

compound: Cn1ncnc1[C@H]1c2n[nH]c(=O)c3cc(F)cc(c23)N[C@@H]1c1ccc(F)cc1 + Cc1[nH]c2ccc(F)cc2c1-c1nc2c3cccnc3c3ncccc3c2[nH]1
assay_system: 276233-004-R-J1-PDC complex spheroid viability
viability, T/C: 99.2%

compound: CCc1c2c(nc3ccc(O)cc13)-c1cc3c(c(=O)n1C2)COC(=O)[C@]3(O)CC + CN(C)c1ccc(Nc2c3ccc(NC(=O)CCN4CCCC4)cc3nc3cc(NC(=O)CCN4CCCC4)ccc23)cc1
assay_system: 276233-004-R-J1-PDC complex spheroid viability
viability, T/C: 104%

compound: Cc1[nH]c2ccccc2c1CCNCc1ccc(/C=C/C(=O)NO)cc1 + Cc1cnc(CNC(=O)c2c(=O)c3ccc(N4CCCN(C)CC4)nc3n3c2sc2ccccc23)cn1
assay_system: 276233-004-R-J1-PDC complex spheroid viability
viability, T/C: 93%
